From: ChEMBL document CHEMBL2150936

system: M14; assay: Cytotoxicity against human M14 cells after 4 hrs by MTT assay; assay type: functional, cell-based; details: M14, 4 h
Property label: pIC50
Would you please state pIC50, meaning minus log10 of the concentration in mol/L, as a bare number?

Challenge: What measured pIC50 goes with NCCNC(=O)C(CN)(Cc1ccc2ccccc2c1)Cc1ccc2ccccc2c1 ?
Response given: 5.50

---

system: Ramos; experiment: Selectivity index, ratio of EC50 for human MRC5 cells to IC50 for human Ramos cells; assay type: functional
Property label: Selectivity Index
// response body must contain only the number

Challenge: Tell me the measured Selectivity Index of CN(C)CCNC(=O)C(CN)(Cc1ccc2ccccc2c1)Cc1ccc2ccccc2c1 , please.
Response given: 0.7

---

system: MRC5; assay: Cytotoxicity against human MRC5 cells after 4 hrs by MTT assay; type: cell-based; conditions: MRC5, 4 h
Property label: pEC50
Keep in mind that pEC50 stands for -log10 of concentration in molar terms.

Known results for molecules:
Challenge: Endpoint output: pEC50 of CN(C)CCOC(=O)C(CN)(Cc1ccc(C(F)(F)F)cc1)Cc1ccc(C(F)(F)F)cc1 . Value?
Response given: 5.09

Challenge: Bench note: what pEC50 did NCCCNC(=O)C(CN)(Cc1ccc2ccccc2c1)Cc1ccc2ccccc2c1 show?
Response given: 5.18

Challenge: # query: pEC50 of entry N=C(N)NCCCNC(=O)C(CNC(=N)N)(Cc1ccc(C(F)(F)F)cc1)Cc1ccc(C(F)(F)F)cc1
Response given: 3.77

Challenge: Can you share its pEC50? I mean this molecule: CC(C)(C)c1ccc(CC(CN)(Cc2ccc(C(C)(C)C)cc2)C(=O)NCCN)cc1
Response given: 5.21

Challenge: Returns the measured pEC50 for the input molecule. Input: NCCNC(=O)C(CN)(Cc1ccc(C(F)(F)F)cc1)Cc1ccc(C(F)(F)F)cc1
Response given: 4.75

Next:
Challenge: Given CN1CCN(C(=O)C(CN)(Cc2ccc(C(F)(F)F)cc2)Cc2ccc(C(F)(F)F)cc2)CC1 , state its recorded pEC50.
Response given: 3.74

Challenge: Look up pEC50 for this molecule: CN(C)CCOC(=O)C(CN)(Cc1ccc2ccccc2c1)Cc1ccc2ccccc2c1
Response given: 4.90

Challenge: Endpoint output: pEC50 of CN(C)CCOC(=O)C(CN)(Cc1ccc(C(C)(C)C)cc1)Cc1ccc(C(C)(C)C)cc1 . Value?
Response given: 4.05

Challenge: Which pEC50 value belongs to CC(C)(C)c1ccc(CC(CN)(Cc2ccc(C(C)(C)C)cc2)C(=O)N[C@@H](CCCNC(=N)N)C(N)=O)cc1 ?
Response given: 3.80

Challenge: So what's the measured pEC50 for this one? CN(C)CCN1CCN(C(=O)C(CN)(Cc2ccc(C(C)(C)C)cc2)Cc2ccc(C(C)(C)C)cc2)CC1
Response given: 4.92

Challenge: For the molecule shown here, CN(C)CCN1CCN(C(=O)C(CN)(Cc2ccc(C(F)(F)F)cc2)Cc2ccc(C(F)(F)F)cc2)CC1 , give the reported pEC50.
Response given: 4.16

Challenge: Requested field: pEC50. Item: CN(C)CCN1CCN(C(=O)C(CN)(Cc2ccc3ccccc3c2)Cc2ccc3ccccc3c2)CC1
Response given: 4.73

Challenge: For the molecule CN1CCN(C(=O)C(CN)(Cc2ccc3ccccc3c2)Cc2ccc3ccccc3c2)CC1 , what pEC50 is on record?
Response given: 4.39

Challenge: Please look up its pEC50: NCCCNC(=O)C(CN)(Cc1ccc(C(F)(F)F)cc1)Cc1ccc(C(F)(F)F)cc1
Response given: 4.52

Challenge: Requested field: pEC50. Item: CC(C)(C)c1ccc(CC(CN)(Cc2ccc(C(C)(C)C)cc2)C(=O)NCCCN)cc1
Response given: 4.46
